Assay: Biodistribution in AR4-2J tumor-bearing mice
Format: in vivo
Conditions: female, mouse, muscle, iv, 10 pmol total peptide, total radioactivity; AR4-2J tumor SCID mice, 4 h pi; mean ± SD; read-out: Muscle uptake
experimental endpoint: tissue uptake at 4 h

// sample C[C@H](NC(=O)CN1CCN(CC(=O)O)CCN(CC(=O)O)CCN(CC(=O)O)CC1)C(=O)NCC(=O)N[C@H]1CSSC[C@@H](C(=O)O)NC(=O)[C@H](CO)NC(=O)[C@H]([C@@H](C)O)NC(=O)[C@H](Cc2ccccc2)NC(=O)[C@H]([C@@H](C)O)NC(=O)[C@H](CCCCN)NC(=O)[C@@H](Cc2c[nH]c3ccccc23)NC(=O)[C@H](Cc2ccccc2)NC(=O)[C@H](Cc2ccccc2)NC(=O)[C@H](CC(N)=O)NC(=O)[C@H](CCCCN)NC1=O [[^111In]AT2S, metal not drawn] , its tissue uptake at 4 h was 0.06 %ID/g

====

Assay: Biodistribution in HEK293-hsst2A+ tumor-bearing mice
Assay type: in vivo
Conditions: mouse, liver, iv, total radioactivity; HEK293-hsst2A+ tumor SCID mice, 4 h pi + co-injection of 35 nmol DP2; mean ± SD; read-out: Liver uptake, blocked
experimental endpoint: tissue uptake at 4 h (%ID/g)
Respond with the bare value in %ID/g.

// sample C[C@H](NC(=O)CN1CCN(CC(=O)O)CCN(CC(=O)O)CCN(CC(=O)O)CC1)C(=O)NCC(=O)N[C@H]1CSSC[C@@H](C(=O)O)NC(=O)[C@H](CO)NC(=O)[C@H]([C@@H](C)O)NC(=O)[C@H](Cc2ccccc2)NC(=O)[C@H]([C@@H](C)O)NC(=O)[C@H](CCCCN)NC(=O)[C@@H](Cc2c[nH]c3ccccc23)NC(=O)[C@H](Cc2ccccc2)NC(=O)[C@H](Cc2ccccc2)NC(=O)[C@H](CC(N)=O)NC(=O)[C@H](CCCCN)NC1=O [[^111In]AT2S, metal not drawn] , its tissue uptake at 4 h was 0.963

====

Experiment: Biodistribution in healthy mice
Type: in vivo
Conditions: male, mouse, pancreas, 10 pmol total peptide, total radioactivity; healthy Swiss albino mice, 4 h pi, iv 10 pmol; read-out: Pancreas uptake
experimental endpoint: tissue uptake at 4 h (%ID/g)
Respond with the bare value in %ID/g.

// sample C[C@H](NC(=O)CN1CCN(CC(=O)O)CCN(CC(=O)O)CCN(CC(=O)O)CC1)C(=O)NCC(=O)N[C@H]1CSSC[C@@H](C(=O)O)NC(=O)[C@H](CO)NC(=O)[C@H]([C@@H](C)O)NC(=O)[C@H](Cc2ccccc2)NC(=O)[C@H]([C@@H](C)O)NC(=O)[C@H](CCCCN)NC(=O)[C@@H](Cc2c[nH]c3ccccc23)NC(=O)[C@H](Cc2ccccc2)NC(=O)[C@H](Cc2ccccc2)NC(=O)[C@H](CC(N)=O)NC(=O)[C@H](CCCCN)NC1=O [[^111In]AT2S, metal not drawn] , its tissue uptake at 4 h was 2.9

====

Experiment: Biodistribution in AR4-2J tumor-bearing mice
Format: in vivo
Details: female, mouse, stomach, iv, 10 pmol, total radioactivity; AR4-2J tumor SCID mice, 1 h pi; mean ± SD; read-out: Stomach uptake
Procedure: In the flanks of each of female SCID mice, inocula (150 μL) containing a suspension of 0.8 × 10^7 AR4-2J cells in PBS buffer were subcutaneously injected. […] Mice were sacrificed at 4 h pi, and biodistribution was studied as described above. The in vivo data presented as mean %ID/g ± SD (n ≥ 4) were statistically analyzed with Student’s t test (Prism^TM 2.01, GraphPad Software, San Diego, CA, USA). Analyses were 2-tailed, and a P value < 0.05 was considered statistically significant.
experimental endpoint: tissue uptake at 1 h
Note to self: number, then unit, no commentary.

// sample C[C@H](NC(=O)CN1CCN(CC(=O)O)CCN(CC(=O)O)CCN(CC(=O)O)CC1)C(=O)NCC(=O)N[C@H]1CSSC[C@@H](C(=O)O)NC(=O)[C@H](CO)NC(=O)[C@H]([C@@H](C)O)NC(=O)[C@H](Cc2ccccc2)NC(=O)[C@H]([C@@H](C)O)NC(=O)[C@H](CCCCN)NC(=O)[C@@H](Cc2c[nH]c3ccccc23)NC(=O)[C@H](Cc2ccccc2)NC(=O)[C@H](Cc2ccccc2)NC(=O)[C@H](CC(N)=O)NC(=O)[C@H](CCCCN)NC1=O [[^111In]AT2S, metal not drawn] , its tissue uptake at 1 h was 3.23 %ID/g

====

Assay: Biodistribution in AR4-2J tumor-bearing mice
Format: in vivo
Conditions: female, mouse, pancreas, iv, total radioactivity; AR4-2J tumor SCID mice, 4 h pi + co-injection of 50 nmol Tate; mean ± SD; read-out: Pancreas uptake, blocked
experimental endpoint: tissue uptake at 4 h (%ID/g)
Respond with the bare value in %ID/g.

// sample C[C@H](NC(=O)CN1CCN(CC(=O)O)CCN(CC(=O)O)CCN(CC(=O)O)CC1)C(=O)NCC(=O)N[C@H]1CSSC[C@@H](C(=O)O)NC(=O)[C@H](CO)NC(=O)[C@H]([C@@H](C)O)NC(=O)[C@H](Cc2ccccc2)NC(=O)[C@H]([C@@H](C)O)NC(=O)[C@H](CCCCN)NC(=O)[C@@H](Cc2c[nH]c3ccccc23)NC(=O)[C@H](Cc2ccccc2)NC(=O)[C@H](Cc2ccccc2)NC(=O)[C@H](CC(N)=O)NC(=O)[C@H](CCCCN)NC1=O [[^111In]AT2S, metal not drawn] , its tissue uptake at 4 h was 0.15

====

Experiment: Biodistribution in HEK293-hsst2A+ tumor-bearing mice
Assay type: in vivo
Settings: mouse, lung, iv, total radioactivity; HEK293-hsst2A+ tumor SCID mice, 4 h pi + co-injection of 35 nmol DP2; mean ± SD; read-out: Lung uptake, blocked
experimental endpoint: tissue uptake at 4 h (%ID/g)
Respond with the bare value in %ID/g.

// sample C[C@H](NC(=O)CN1CCN(CC(=O)O)CCN(CC(=O)O)CCN(CC(=O)O)CC1)C(=O)NCC(=O)N[C@H]1CSSC[C@@H](C(=O)O)NC(=O)[C@H](CO)NC(=O)[C@H]([C@@H](C)O)NC(=O)[C@H](Cc2ccccc2)NC(=O)[C@H]([C@@H](C)O)NC(=O)[C@H](CCCCN)NC(=O)[C@@H](Cc2c[nH]c3ccccc23)NC(=O)[C@H](Cc2ccccc2)NC(=O)[C@H](Cc2ccccc2)NC(=O)[C@H](CC(N)=O)NC(=O)[C@H](CCCCN)NC1=O [[^111In]AT2S, metal not drawn] , its tissue uptake at 4 h was 0.47

====

Test: Biodistribution in AR4-2J tumor-bearing mice
Format: in vivo
Conditions: female, mouse, lung, iv, 10 pmol total peptide, total radioactivity; AR4-2J tumor SCID mice, 4 h pi; mean ± SD; read-out: Lung uptake
Description: In the flanks of each of female SCID mice, inocula (150 μL) containing a suspension of 0.8 × 10^7 AR4-2J cells in PBS buffer were subcutaneously injected. […] Mice were sacrificed at 4 h pi, and biodistribution was studied as described above. The in vivo data presented as mean %ID/g ± SD (n ≥ 4) were statistically analyzed with Student’s t test (Prism^TM 2.01, GraphPad Software, San Diego, CA, USA). Analyses were 2-tailed, and a P value < 0.05 was considered statistically significant.
experimental endpoint: tissue uptake at 4 h (%ID/g)
Respond with the bare value in %ID/g.

// sample C[C@H](NC(=O)CN1CCN(CC(=O)O)CCN(CC(=O)O)CCN(CC(=O)O)CC1)C(=O)NCC(=O)N[C@H]1CSSC[C@@H](C(=O)O)NC(=O)[C@H](CO)NC(=O)[C@H]([C@@H](C)O)NC(=O)[C@H](Cc2ccccc2)NC(=O)[C@H]([C@@H](C)O)NC(=O)[C@H](CCCCN)NC(=O)[C@@H](Cc2c[nH]c3ccccc23)NC(=O)[C@H](Cc2ccccc2)NC(=O)[C@H](Cc2ccccc2)NC(=O)[C@H](CC(N)=O)NC(=O)[C@H](CCCCN)NC1=O [[^111In]AT2S, metal not drawn] , its tissue uptake at 4 h was 1.43

====

Experiment: Biodistribution in HEK293-hsst2A+ tumor-bearing mice
Type: in vivo
Conditions: mouse, blood, iv, 10 pmol, total radioactivity; HEK293-hsst2A+ tumor SCID mice, 4 h pi; mean ± SD; read-out: Blood uptake
experimental endpoint: tissue uptake at 4 h (%ID/g)
Respond with the bare value in %ID/g.

// sample C[C@H](NC(=O)CN1CCN(CC(=O)O)CCN(CC(=O)O)CCN(CC(=O)O)CC1)C(=O)NCC(=O)N[C@H]1CSSC[C@@H](C(=O)O)NC(=O)[C@H](CO)NC(=O)[C@H]([C@@H](C)O)NC(=O)[C@H](Cc2ccccc2)NC(=O)[C@H]([C@@H](C)O)NC(=O)[C@H](CCCCN)NC(=O)[C@@H](Cc2c[nH]c3ccccc23)NC(=O)[C@H](Cc2ccccc2)NC(=O)[C@H](Cc2ccccc2)NC(=O)[C@H](CC(N)=O)NC(=O)[C@H](CCCCN)NC1=O [[^111In]AT2S, metal not drawn] , its tissue uptake at 4 h was 0.23
